# measurement.protocol: microbe, parasite or virus in culture
# condition.description: Mycobacterium tuberculosis, 96 h, read-out: pIC50 (converted)
// values below are reported IC50
measurement.label: IC50

[[record]]
compound = "Nc1ccc(CNc2ccc(C(F)(F)F)nn2)cn1"
measurement_label = "IC50"
result = "> 501 µM"

[[record]]
compound = "Cc1nnc(SCCC(=O)N(C)Cc2ccc(F)cc2F)[nH]1"
measurement_label = "IC50"
result = "> 50.1 µM"

[[record]]
compound = "OC(CN1CCCSCC1)c1ccc(F)cc1 (stereo not drawn)"
measurement_label = "IC50"
result = "> 501 µM"


---

# Tested on: Schistosoma mansoni
# measurement.protocol: High throughput screening of compounds against Schistosoma mansoni motility
# Format: functional
# Set-up: dose or concentration left out as unconfirmed
measurement.label: Percent Effect

[[record]]
compound = "CCc1nc(C2CCCN2CC(=O)Nc2c(C)nn(C)c2C)no1 (centres undefined)"
measurement_label = "Percent Effect"
result = "-35.66%"

[[record]]
compound = "Cc1nc(C)n(CC2CCCN(CCc3ccncc3)C2)n1 (centres undefined)"
measurement_label = "Percent Effect"
result = "-44.91%"

[[record]]
compound = "CN(Cc1ccc(F)cc1)CC1(O)CCCN(CC(C)(C)C)C1=O (centres undefined)"
measurement_label = "Percent Effect"
result = "7.085%"

[[record]]
compound = "CCC(C)N(C)S(=O)(=O)c1ccc(CCNC(C)=O)s1 (centres undefined)"
measurement_label = "Percent Effect"
result = "-44.53%"

[[record]]
compound = "CCC(=O)N1CCc2[nH]cnc2C12CCN(C(=O)CCS(C)(=O)=O)CC2"
measurement_label = "Percent Effect"
result = "-12.74%"

[[record]]
compound = "Cc1cc(N2CCC(N(C)C(=O)c3ccccc3)CC2)nc(C)n1"
measurement_label = "Percent Effect"
result = "-7.781%"

[[record]]
compound = "Cc1ncc(-c2nc3cc(S(=O)(=O)N4CCCC4)ccc3n2C)cn1"
measurement_label = "Percent Effect"
result = "-72.39%"

[[record]]
compound = "CC(C)COC(C)C(=O)N1CCN(S(C)(=O)=O)CC1 (centres undefined)"
measurement_label = "Percent Effect"
result = "-53.15%"

[[record]]
compound = "COC(=O)c1ccc2ccn(CC3CCCO3)c(=O)c2c1 (centres undefined)"
measurement_label = "Percent Effect"
result = "-62.88%"


---

// values below are reported IC50
# measurement.protocol: microbe, parasite or virus in culture
# condition.description: Mycobacterium tuberculosis, 96 h, read-out: pIC50 (converted)
measurement.label: IC50

[[record]]
compound = "O=C(NCC(O)c1ccc(Cl)cc1)Nc1ccccn1 (centres undefined)"
result = "> 501 µM"

[[record]]
compound = "CCc1nc(CN2CCCN(Cc3noc(C4CC4)n3)CC2)cs1"
result = "> 50.1 µM"

[[record]]
compound = "CCO[C@H]1CC[C@H]2[C@@H]1OCCN2C(=O)COc1ccccc1"
result = "> 50.1 µM"

[[record]]
compound = "COc1c(C)cnc(CSc2nnc(N)s2)c1C"
result = "> 50.1 µM"

[[record]]
compound = "CC(CO)(CO)NCc1cnn(-c2ccc(Br)cc2)c1"
result = "393 µM"

[[record]]
compound = "CCOc1ccnc(N[C@@H](Cc2ccccc2)C(N)=O)n1"
result = "> 50.1 µM"

[[record]]
compound = "CSCC(CCO)Nc1ncccc1C(F)(F)F (centres undefined)"
result = "> 501 µM"

[[record]]
compound = "COCCCN(C)c1nc(-c2ccncc2)nc(C)c1C"
result = "6.84 µM"

[[record]]
compound = "FC(F)COCCn1nnc(-c2ccsc2)n1"
result = "56.4 µM"


---

# measurement.protocol: microbe, parasite or virus in culture
# condition.description: Mycobacterium tuberculosis, 96 h, read-out: pIC50 (converted)
measurement.label: IC50

[[record]]
molecule = "CCc1ccc(C(=O)CSc2nnc(N)[nH]2)cc1"
measurement_label = "IC50"
result = "449 µM"

[[record]]
molecule = "CCC1c2ccsc2CCN1CC(=O)NC (centres undefined)"
measurement_label = "IC50"
result = "> 501 µM"

[[record]]
molecule = "CCOc1ccc2c(c1)C=C(C(=O)NC)CO2"
measurement_label = "IC50"
result = "230 µM"

[[record]]
molecule = "CC(C)c1cccc(CN[C@H](CO)C(C)C)n1"
measurement_label = "IC50"
result = "> 501 µM"

[[record]]
molecule = "Fc1cc(Cl)cnc1N1CCCNCC1"
measurement_label = "IC50"
result = "> 501 µM"

[[record]]
molecule = "CCS(=O)(=O)NC1CCN(c2cc(Br)ccn2)CC1"
measurement_label = "IC50"
result = "> 501 µM"

[[record]]
molecule = "CCOC(=O)c1ccccc1N1C(=O)C=CC1=O"
measurement_label = "IC50"
result = "83.7 µM"

[[record]]
molecule = "CCOCC1CCN(C(=O)C(c2ccccc2F)N(C)C)CC1 (centres undefined)"
measurement_label = "IC50"
result = "> 50.1 µM"

[[record]]
molecule = "CC(C)Nc1cc(Cl)ccc1OCCS(C)(=O)=O"
measurement_label = "IC50"
result = "222 µM"


---

# measurement.protocol: microbe, parasite or virus in culture
# condition.description: Mycobacterium tuberculosis, 96 h, read-out: pIC50 (converted)
// values below are reported IC50
measurement.label: IC50

[[record]]
compound = "CCOC(C(=O)N(C)CC(N)=O)c1ccccc1 (stereo not given)"
measurement_label = "IC50"
result = "> 501 µM"

[[record]]
compound = "CCCn1nnnc1NCc1ccsc1"
measurement_label = "IC50"
result = "132 µM"

[[record]]
compound = "Cc1cccc(NC(=O)CN(C)Cc2nnsc2Cl)n1"
measurement_label = "IC50"
result = "> 501 µM"

[[record]]
compound = "CC(=O)c1sc(NCCc2ccccn2)nc1C"
measurement_label = "IC50"
result = "> 501 µM"

[[record]]
compound = "CC(C)N(C)S(=O)(=O)NC1CCOc2ccccc21 (stereo not given)"
measurement_label = "IC50"
result = "> 501 µM"


---

// values below are reported log10 IC50
# measurement.protocol: microbe, parasite or virus in culture
# condition.description: Mycobacterium tuberculosis, 72 h, read-out: pIC50 (converted)
measurement.label: log10 IC50 (log10 of the value in µM)

[[record]]
compound = "CCc1ccccc1OC1CN(C(=O)c2ccsc2)C1"
measurement_label = "log10 IC50"
number = 0.91

[[record]]
compound = "Cc1cc(C)n(CC(=O)NCc2ccc(F)cc2)n1"
measurement_label = "log10 IC50"
number = 2.33

[[record]]
compound = "CC(N)c1nc(-c2ccc(Br)cc2)c[nH]1 (stereo not given)"
measurement_label = "log10 IC50"
number = 2.00

[[record]]
compound = "COc1cccc(CS(=O)(=O)Nc2ccc(C)nc2)c1"
measurement_label = "log10 IC50"
number = 2.49

[[record]]
compound = "Cc1cnn(CC2CN(Cc3nc4ccccc4s3)CCO2)c1 (stereo not given)"
measurement_label = "log10 IC50"
number = 1.54

[[record]]
compound = "CNc1nc(C)cc(NCc2cc(C)cc3c(C)c(C)[nH]c23)n1"
measurement_label = "log10 IC50"
number = 1.45

[[record]]
compound = "CN(C)C(=O)CSCC(=O)NCc1ccc(Cl)cc1"
measurement_label = "log10 IC50"
number = 1.94

[[record]]
compound = "Cc1nnc(CN(Cc2ccccc2Br)C2CC2)o1"
measurement_label = "log10 IC50"
number = 1.30

[[record]]
compound = "c1ccc(CNc2cc(-n3cccn3)ncn2)cc1"
measurement_label = "log10 IC50"
number = 1.05

[[record]]
compound = "CCc1ccc(CN2CCN(C(=O)N(C)C)CC2)o1"
measurement_label = "log10 IC50"
number = 2.31

[[record]]
compound = "NS(=O)(=O)CC1CCN(c2ncc(Br)cn2)CC1"
measurement_label = "log10 IC50"
number = 2.46

[[record]]
compound = "COC(=O)c1ccc(N2CCC(N(C)c3ccccc3)CC2)nn1"
measurement_label = "log10 IC50"
number = 1.57

[[record]]
compound = "CC1(C)CNCCC(=O)C1"
measurement_label = "log10 IC50"
number = 2.41

[[record]]
compound = "Cc1cc(NC(C)CN2CCOCC2)ncc1Br (stereo not given)"
measurement_label = "log10 IC50"
number = 2.62

[[record]]
compound = "CCc1nc(C#N)c(NCc2ccc3c(c2)OCO3)o1"
measurement_label = "log10 IC50"
number = 2.02

[[record]]
compound = "COC(=O)c1ccc(-c2noc(CN(CCO)Cc3cccs3)n2)cc1"
measurement_label = "log10 IC50"
number = 1.68

[[record]]
compound = "NC(=O)C1=NC2=NS(=O)(=O)c3ccccc3N2N1Cc1ccc(Cl)cc1"
measurement_label = "log10 IC50"
number = 1.66

[[record]]
compound = "O=C(NCCc1cccc(F)c1)C1(n2cnnn2)CCCCC1"
measurement_label = "log10 IC50"
number = 1.67

[[record]]
compound = "CNC(=O)C(C)Sc1nnnn1-c1ccccc1C (stereo not given)"
measurement_label = "log10 IC50"
number = 2.32

